# target.or.system: MC1R (Homo sapiens, UniProt Q01726)
# Sequence (Q01726 whole entry): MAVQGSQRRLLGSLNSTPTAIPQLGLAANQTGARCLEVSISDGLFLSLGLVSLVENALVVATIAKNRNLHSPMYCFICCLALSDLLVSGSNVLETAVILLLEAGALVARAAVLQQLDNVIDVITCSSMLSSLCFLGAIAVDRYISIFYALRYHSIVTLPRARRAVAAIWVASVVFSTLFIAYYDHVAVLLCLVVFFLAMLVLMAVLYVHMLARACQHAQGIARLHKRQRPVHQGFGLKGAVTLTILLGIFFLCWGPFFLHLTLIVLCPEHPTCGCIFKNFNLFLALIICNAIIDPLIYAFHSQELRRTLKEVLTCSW
# assay: Europium time-resolved fluorescence competitive binding assay (Eu-NDP-α-MSH) on HCT116/hMC1R cells
# Design: host or cells: HCT116
# condition.summary: HCT116/hMC1R cells, competition with Eu-NDP-α-MSH; read-out: Ki MC1R (values determined)
quantity.measured: Ki (nM)
Report as a plain number; the unit nM is understood.

Task item: Identify the reported Ki for the following entry. CC(=O)N[C@@H](CCc1ccccc1)C(=O)N[C@@H](Cc1cnc[nH]1)C(=O)N[C@H](Cc1ccccc1)C(=O)N[C@@H](CCCN=C(N)N)C(=O)N[C@@H](Cc1c[nH]c2ccccc12)C(N)=O [Compound 2]
Reply: 1.77
